- SYSTEM_UNDER_TEST: L-type calcium channel, benzothiazepine site (Rattus norvegicus, UniProt P22002+P27732+Q02485)
- TEST_DETAILS: Displacement of [3H]diltiazem from rat calcium channel L-Type benzothiazepine site at 10 uM
- Format: protein assay
- CONDITION: probe [3H]diltiazem
MEASUREMENT_KIND: inhibition at 10 µM
Answer shape: numeric part, then the unit.

-- ask Need inhibition at 10 µM, item CN1CCN(C)/C(=N/c2ccc([N+](=O)[O-])cc2C(=O)Nc2ccccc2)C1
-- reply 7.06%

====

- TEST_DETAILS: Plasma concentration in C57BL/6 mouse at 1 mg/kg, ip administered as single dose measured after 20 mins by LC/MS analysis based RACE assay
- Format: ADME, organism-based
- Parameters: dose 1 mg/kg, route intraperitoneal
MEASUREMENT_KIND: concentration at 20 min (nM)
Write the value in nM as a bare number.

-- ask What value of concentration at 20 min has been recorded for this entry: CN1CCN(C)/C(=N/c2ccc([N+](=O)[O-])cc2C(=O)Nc2ccccc2)C1
-- reply 200

====

Assignment: determine reported pEC50 for the given compounds.
- Tested on: Venezuelan equine encephalitis virus
- TEST_DETAILS: Antiviral activity against Venezuelan equine encephalitis virus V3526 infected in Vero 76 cells assessed as reduction in virus-induced cytopathic effect after 2 days by Celltiter-Glo reagent based assay
- Type: functional, organism-based
- CONDITION: V3526, Vero 76, 48 h
FYI, pEC50 means -log10 of a concentration in mol per litre.

-- ask Need pEC50 of COc1ccc(NC(=O)c2cc([N+](=O)[O-])ccc2/N=C2\CN(C)CCN2C)cc1 , thanks.
-- reply 7.70

-- ask Entry CN1CCN(C)/C(=N/c2ccc([N+](=O)[O-])cc2C(=O)Nc2ccccc2)C1 please
-- reply 7.70

-- ask CCN1CCN(Cc2nc3ccc([N+](=O)[O-])cc3c(=O)n2-c2ccccc2F)CC1 ?
-- reply 6.52

====

- TEST_DETAILS: Drug concentration in C57BL/6 mouse brain at 5 mg/kg, ip administered as single dose measured after 120 mins by LC/MS analysis based RACE assay
- Format: ADME, organism-based
- Design: dose 5 mg/kg, route intraperitoneal
- CONDITION: read-out: Drug uptake
MEASUREMENT_KIND: concentration at 2 h (nM)
// units = nM; emit number, no label

-- ask Need concentration at 2 h, item CN1CCN(C)/C(=N/c2ccc([N+](=O)[O-])cc2C(=O)Nc2ccccc2)C1
-- reply 210

====

- TEST_DETAILS: Cytotoxicity against african green monkey Vero 76 cells after 3 days by Celltiter-Glo reagent based assay
- Format: cell-based
- CONDITION: chlorocebus sabaeus, vero 76, 72 h
Assignment: determine reported CC50 for the given compounds.

-- ask Data request, read-out CC50, for CCN1CCN(Cc2nc3ccc(-c4nnn[nH]4)cc3c(=O)n2-c2ccccc2)CC1
-- reply > 50 µM

-- ask Same thing, different compound: CNCCCN(C)Cc1nc2ccc([N+](=O)[O-])cc2c(=O)n1-c1ccccc1
-- reply > 50 µM

-- ask Param item: CCN1CCN(Cc2nc3ccc([N+](=O)[O-])cc3c(=O)n2-c2ccccc2F)CC1
-- reply > 50 µM

-- ask Also need CCN1CCN(Cc2nc3ccc([N+](=O)[O-])cc3c(=O)n2Cc2ccccc2)CC1 , thanks.
-- reply > 50 µM

-- ask Next: CN1CCN(C)/C(=N/c2ccc([N+](=O)[O-])cc2C(=O)Nc2cccc(F)c2)C1
-- reply > 50 µM
